Measured selectivity ratio at 1 hr, listed per entry.
TARGET_SYSTEM: hERG channel (selectivity at VMAT2 over hERG) (Homo sapiens (Human), UniProt Q12809)
Sequence (Q12809 whole entry): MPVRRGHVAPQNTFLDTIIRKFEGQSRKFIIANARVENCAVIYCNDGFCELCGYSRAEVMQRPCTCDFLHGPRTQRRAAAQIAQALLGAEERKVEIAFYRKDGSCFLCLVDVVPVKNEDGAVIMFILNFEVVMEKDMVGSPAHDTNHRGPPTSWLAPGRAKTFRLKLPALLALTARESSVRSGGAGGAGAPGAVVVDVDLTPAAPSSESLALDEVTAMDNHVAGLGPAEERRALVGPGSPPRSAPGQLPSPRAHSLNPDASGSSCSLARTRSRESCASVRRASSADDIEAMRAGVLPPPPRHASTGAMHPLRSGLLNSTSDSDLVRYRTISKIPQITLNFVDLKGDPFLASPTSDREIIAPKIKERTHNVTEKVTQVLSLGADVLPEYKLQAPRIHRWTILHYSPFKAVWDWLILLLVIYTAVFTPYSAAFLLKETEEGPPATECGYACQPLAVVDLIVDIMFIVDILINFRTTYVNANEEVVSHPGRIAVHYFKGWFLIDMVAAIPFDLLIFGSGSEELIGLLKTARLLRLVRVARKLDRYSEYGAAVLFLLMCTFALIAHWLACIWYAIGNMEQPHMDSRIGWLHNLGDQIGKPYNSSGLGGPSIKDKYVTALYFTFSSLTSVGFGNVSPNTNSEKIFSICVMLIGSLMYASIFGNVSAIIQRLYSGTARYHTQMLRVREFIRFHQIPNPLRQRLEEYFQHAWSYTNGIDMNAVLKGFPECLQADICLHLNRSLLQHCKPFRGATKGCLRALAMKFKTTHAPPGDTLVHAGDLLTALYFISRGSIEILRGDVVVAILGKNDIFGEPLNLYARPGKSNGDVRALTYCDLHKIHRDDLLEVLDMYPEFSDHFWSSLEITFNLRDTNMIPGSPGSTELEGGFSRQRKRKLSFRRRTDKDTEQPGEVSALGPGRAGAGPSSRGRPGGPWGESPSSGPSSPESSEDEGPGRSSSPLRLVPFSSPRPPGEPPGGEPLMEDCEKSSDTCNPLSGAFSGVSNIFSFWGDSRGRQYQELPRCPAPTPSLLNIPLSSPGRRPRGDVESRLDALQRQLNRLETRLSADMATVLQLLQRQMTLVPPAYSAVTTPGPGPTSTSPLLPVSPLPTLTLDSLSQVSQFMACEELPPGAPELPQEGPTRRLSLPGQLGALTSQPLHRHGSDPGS
PROTOCOL_TEXT: [3H]Dofetilide binding assay, HEK-293 cell membrane preparation
MEASUREMENT_PARAMETERS: human, pH 7.4
READOUT_KIND: selectivity ratio at 1 hr

[[record]]
compound = "COc1ccc(CCCN[C@H](C)Cc2ccccc2)cc1.Cl [Compound 9]"
measured_result = "> 30"

[[record]]
compound = "COc1ccc(CCCN[C@@H](C)Cc2ccccc2)cc1.Cl [Compound 10]"
measured_result = "> 30"


====

TARGET_SYSTEM: UniProt Q01827
MEASUREMENT_PARAMETERS: rat brain synaptic vesicles; read-out: [3H]DTBZ binding (Ki) VMAT2
pKi: −log10 of the molar value.
Measured pKi, listed per entry.
READOUT_KIND: pKi

[[record]]
compound = "COc1ccc(CC(C)NCCCc2ccccc2)cc1 (stereo not drawn)"
measured_result = 5.90

[[record]]
compound = "COc1ccc(CCCNC(C)Cc2ccc(O)cc2)cc1 (stereo not drawn)"
measured_result = 6.64

[[record]]
compound = "CC(Cc1ccc(F)cc1)NCCCc1ccccc1 (stereo not drawn)"
measured_result = 5.89

[[record]]
compound = "CC(Cc1ccccc1)NCCc1ccc(O)cc1 (stereo not drawn)"
measured_result = 5.82

[[record]]
compound = "COc1ccc(CCNC(C)CCc2ccc(OC)cc2)cc1 (stereo not drawn)"
measured_result = 5.82

[[record]]
compound = "CC(Cc1ccccc1)NCCCc1ccccc1 (stereo not drawn)"
measured_result = 5.95


====

PROTOCOL_TEXT: Microsomal stability assay, rat liver microsomes
Measured Microsomal stability assays: Half-life, listed per entry.
READOUT_KIND: Microsomal stability assays: Half-life (min)

[[record]]
compound = "CC(Cc1ccccc1)NCCCc1ccc(-c2cccnc2)cc1 (centres unmarked)"
measured_result = 6

[[record]]
compound = "CC(Cc1ccc([N+](=O)[O-])cc1)NCCCc1ccc(F)cc1 (centres unmarked)"
measured_result = 24

[[record]]
compound = "CC(Cc1ccc(F)cc1)NCCCc1ccc(Br)cc1 (centres unmarked)"
measured_result = 6

[[record]]
compound = "CC(Cc1ccc(Br)cc1)NCCCc1ccc(Cl)cc1 (centres unmarked)"
measured_result = 6

[[record]]
compound = "FCC(Cc1ccc(F)cc1)NCCCc1ccc(Cl)cc1 (centres unmarked)"
measured_result = 6

[[record]]
compound = "CC(Cc1ccccc1)NCCCc1ccc(I)cc1 (centres unmarked)"
measured_result = 6

[[record]]
compound = "CC(Cc1ccc(N)cc1)NCCCc1ccc(F)cc1 (centres unmarked)"
measured_result = 144

[[record]]
compound = "CC(Cc1ccc(NC=O)cc1)NCCCc1ccc(F)cc1 (centres unmarked)"
measured_result = 114

[[record]]
compound = "FCC(Cc1ccc(Br)cc1)NCCCc1ccc(F)cc1 (centres unmarked)"
measured_result = 6

[[record]]
compound = "CC(Cc1ccc(F)cc1)NCCCc1ccc(I)cc1 (centres unmarked)"
measured_result = 6

[[record]]
compound = "COc1ccc(CCC(C)NC(C)Cc2ccccc2)cc1 (centres unmarked)"
measured_result = 6


====

PROTOCOL_TEXT: in vitro
MEASUREMENT_PARAMETERS: both, human, microsomes, pH 7.4, Microsomal stability assays: Clearance
READOUT_KIND: CLint scaled at 0.08 µM (L/h/kg)

[[record]]
compound = "FCC(Cc1ccc(-c2cncnc2)cc1)NCCCc1ccc(F)cc1 (centres unmarked)"
unit_text = "L/h/kg"
censor_symbol = ">"
measured_result = 24

[[record]]
compound = "FCC(Cc1ccc(F)cc1)NCCCc1ccnc2ccccc12 (centres unmarked)"
unit_text = "L/h/kg"
censor_symbol = "="
measured_result = 9.72

[[record]]
compound = "Fc1ccc(CCCNC(Cc2ccc(F)cc2)C(F)F)cc1 (centres unmarked)"
unit_text = "L/h/kg"
censor_symbol = "="
measured_result = 1.58

[[record]]
compound = "FCC(Cc1ccc(F)cc1)NCCCc1ccncc1 (centres unmarked)"
unit_text = "L/h/kg"
censor_symbol = "="
measured_result = 5.89

[[record]]
compound = "OCC(Cc1ccc(F)cc1)NCCCc1ccc(Br)cc1 (centres unmarked)"
unit_text = "L/h/kg"
censor_symbol = "<"
measured_result = 0.312


Hello, the source for this data is patent US11999676B2, in case you need it.
